Each entry below lists one item and its recorded IC50 value.
Tested on: Hep3B
run_description: Cytotoxicity assay (cell titer-glo and calcein AM), Hep3B
measurement_context: read-out: Cytotoxicity IC50, Hep 3B, calcein; Hep 3B; calcein AM readout; % error in parentheses
Quick note: give the figure in nM, leave out the unit.

Q: Which IC50 reading was recorded for the compound COc1cc2c(c(OC)c1OC)-c1ccc(OC)c(=O)cc1C(NC(=O)CN(OC)C1CC(O)C(O)C(C)O1)CC2 [Col65, D-Digitoxoside] ?
Ans: 1880

Q: Continue with COc1cc2c(c(OC)c1OC)-c1ccc(OC)c(=O)cc1[C@@H](NC(=O)CN(OC)[C@@H]1O[C@H](C(=O)O)[C@@H](O)[C@H](O)[C@H]1O)CC2 [Col15, D-glucuronoside]
Ans: 3440

Q: How about this compound: COc1cc2c(c(OC)c1OC)-c1ccc(OC)c(=O)cc1[C@@H](NC(=O)CN(OC)[C@@H]1O[C@H](CO)[C@@H](O[C@H]3O[C@H](CO)[C@@H](O)[C@H](O)[C@H]3O)[C@H](O)[C@H]1O)CC2 [Col38, D-maltoside]
Ans: 1390

Q: Moving on to the next compound: COc1cccc2c1C(=O)c1c(O)c3c(c(O)c1C2=O)C[C@@](O)(C(=O)CO)C[C@@H]3O[C@H]1C[C@H](N)[C@H](O)[C@H](C)O1
Ans: 268
